These entries and their values trace back to PubChem BioAssay AID1159580.

- protocol.details: chemical genetic growth profiling, strain panel (AID 1159580);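 also: tested at 20 µM; growth read once vehicle control cultures reached saturation at 30 °C; 1 = growth at the plate median or of vehicle wells; lower values mean less growth of the strain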
- measurement.parameters: S. cerevisiae deletion strains, growth OD, locus YNL222W, strain SSU72, active compounds read low
Among all 5,500 compounds or so, about 2,000 (36%) were called active. Not shown: some 18% with an inconclusive outcome. Some of the results follow.
Consider the following compounds and their measured normalized growth readings.

{"compound": "S=C(NCCc1csc2ccccc12)Nc1ccc(Cl)cc1", "normalized growth": "0.952 (inactive)"}
{"compound": "O=C(/C=C/c1ccc(Cl)cc1)Nc1cccc(Cl)c1", "normalized growth": "0.961 (inactive)"}
{"compound": "CCOC(=O)c1cnc(-c2ccccn2)[nH]c1=O", "normalized growth": "0.921 (inactive)"}
{"compound": "CCOC(=O)c1ccc(N=Cc2cc(Cl)cc(Cl)c2O)cc1", "normalized growth": "0.956 (inactive)"}
{"compound": "O=C(OCCNc1ccc([N+](=O)[O-])cn1)c1ccc([N+](=O)[O-])o1", "normalized growth": "0.915 (inactive)"}
{"compound": "O=C(NCc1ccc2c(c1)OCO2)c1cc2ccccc2s1", "normalized growth": "0.853 (active)"}
{"compound": "Cn1ncc(-c2nc(-c3ccc(Cl)cc3)cs2)c1N", "normalized growth": "0.934 (inactive)"}
{"compound": "Cc1csc2ncnc(N3CCN(C(=O)Nc4ccc(SC(F)(F)F)cc4)CC3)c12", "normalized growth": "1 (inactive)"}
{"compound": "Cc1oc(C(C)(C)C)cc1-c1cc(NC(=O)c2ccccc2)n[nH]1", "normalized growth": "0.969 (inactive)"}
{"compound": "FC(F)(F)c1ccncc1-c1nc(-c2ccc(Cl)cc2)cs1", "normalized growth": "0.98 (inactive)"}
{"compound": "FC(F)(F)c1c2c(nc3cc(-c4ccco4)nn13)CCC2", "normalized growth": "0.97 (inactive)"}
{"compound": "O=S(=O)(Nc1c(F)cccc1F)c1ccc(Cl)c(Cl)c1", "normalized growth": "0.937 (inactive)"}
{"compound": "NNC(=O)c1oc2nc(-c3ccccc3)cc(-c3ccccc3)c2c1N", "normalized growth": "0.981 (inactive)"}
{"compound": "Cc1csc2ncnc(N3CCN(C(=S)Nc4ccc(C(F)(F)F)cc4)CC3)c12", "normalized growth": "0.986 (inactive)"}
{"compound": "Cc1cc(N=Cc2cc(Cl)cc(Cl)c2O)no1", "normalized growth": "0.96 (inactive)"}
{"compound": "COc1cc(C2SCCS2)cc(Br)c1OC(=O)NC(=O)c1c(Cl)cccc1Cl", "normalized growth": "0.975 (inactive)"}
{"compound": "CC(C)Sc1c(Cl)cccc1NC(=O)Nc1cccc(C(F)(F)F)c1", "normalized growth": "0.97 (inactive)"}
{"compound": "N/C(=N/OCc1c(F)cccc1Cl)c1ccc(Cl)cc1", "normalized growth": "0.933 (inactive)"}
{"compound": "Cn1cc(Br)c(-c2cccc(NS(=O)(=O)c3ccc(Cl)cc3)c2)n1", "normalized growth": "0.995 (inactive)"}
{"compound": "COC(=S)Nc1cc(Cl)cc(Cl)c1", "normalized growth": "0.933 (inactive)"}
{"compound": "O=C(Nc1ccc(F)cc1)c1cc(Br)ccc1O", "normalized growth": "0.902 (inactive)"}
{"compound": "CC1SC(c2cccnc2)N(c2ccc(Cl)cc2)C1=O (centres undefined)", "normalized growth": "0.96 (inactive)"}
{"compound": "CC(C)c1cccc(C(C)C)c1OC(=O)NC(=O)c1c(Cl)cccc1Cl", "normalized growth": "0.987 (inactive)"}
{"compound": "S=C(NCc1cccs1)Nc1cc(Cl)cc(Cl)c1", "normalized growth": "0.93 (inactive)"}
{"compound": "CC(C)Sc1c(Cl)cccc1NC(=O)Nc1ccccc1", "normalized growth": "0.964 (inactive)"}
{"compound": "COC(=O)c1cc([N+](=O)[O-])ccc1S(=O)(=O)Cc1ccc(Cl)cc1", "normalized growth": "0.988 (inactive)"}
{"compound": "O=[N+]([O-])c1ccc(NCc2ccc(Cl)c(Cl)c2)nc1", "normalized growth": "0.927 (inactive)"}
{"compound": "Cc1csc2c(N3CCN(C(=S)Nc4ccc(C(F)(F)F)cc4)CC3)ncnc12", "normalized growth": "0.991 (inactive)"}
{"compound": "COC(=O)c1cc(I)c(OC(C)=O)c(I)c1", "normalized growth": "0.94 (inactive)"}
